Test: Half life in mouse at 40 mg/kg, po
Type: ADME, organism-based
Settings: in vivo
propertyLabel: half-life (h)
Report as a plain number; the unit h is understood.

QUERY: I would be grateful if you could share the reported half-life for CCCCC(C(=O)COc1c(F)c(F)cc(F)c1F)n1cc([C@@](C)(NCc2ccc3ncsc3c2)C(C)C)nn1 (some centres undefined) .
RESULT: 3.41

QUERY: Repeat for the following molecule: CCCCC(C(=O)COc1c(F)c(F)cc(F)c1F)n1cc([C@@](C)(NCc2ccc3ncccc3c2)C(C)C)nn1 (some centres undefined)
RESULT: 3.34

QUERY: Repeat for the following molecule: CCCCC(C(=O)COc1c(F)c(F)cc(F)c1F)n1cc([C@@](C)(NCc2ccc3ncccc3c2)C2CCCC2)nn1 (some centres undefined)
RESULT: 3

QUERY: Repeat for the following molecule: CCCCC(C(=O)COc1c(F)c(F)cc(F)c1F)n1cc([C@@](C)(NCc2ccn3nccc3n2)C2CCCC2)nn1 (some centres undefined)
RESULT: 2.32

Source listed as ChEMBL document CHEMBL3627660.
